# EXPERIMENTAL TARGET: T1, human SIRPγ (huSIRPγ) (human, UniProt Q9P1W8 29-360, limits assumed, biotinylated in the SPR assay)
# T1 construct: Coated on the plate in ELISA, biotinylated and captured in SPR
# T1 sequence (Q9P1W8 29-360 limits assumed): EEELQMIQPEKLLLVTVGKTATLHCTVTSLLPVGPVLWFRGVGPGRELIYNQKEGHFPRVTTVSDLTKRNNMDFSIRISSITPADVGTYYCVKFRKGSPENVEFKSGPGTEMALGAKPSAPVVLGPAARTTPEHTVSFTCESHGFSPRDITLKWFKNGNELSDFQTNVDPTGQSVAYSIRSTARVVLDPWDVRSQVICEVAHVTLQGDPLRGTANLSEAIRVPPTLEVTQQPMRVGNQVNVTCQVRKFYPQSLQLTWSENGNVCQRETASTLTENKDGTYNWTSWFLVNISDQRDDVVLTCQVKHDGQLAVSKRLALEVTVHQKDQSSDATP
# PROTOCOL DESCRIPTION: SPR, biotinylated antigen captured, 25 C
MEASUREMENT TYPE: binding result

INSERT INTO results (binder, value) VALUES
  ('anti-SIRPα antibody 10 humanized (antibody, human IgG1, kappa, L234A L235A, V domains shown, Humanized, human IgG1 LALA / kappa) VH: KVEESGGGLVQPGGSLRLSCAASGFSLSSYVMGWVRQAPGKGLEWVSIISSSGSPYYASWVNGRFTISKDNSEGMVYLQMNSLRAEDTAVYYCARVGPLGVDYFNIWGQGTTVTVSS VL: DIVMTQSPDSLAVSLGERATINCQAGQSINSYLAWYQQKPGQPPKLLIYYASTLESGVPDRFSGSGSGTDFTLTISSLQAEDVAVYYCQSWHYISRSYAFGGGTKLEIKR', 'no binding'),
  ('anti-SIRPα antibody 12 humanized (antibody, human IgG1, kappa, L234A L235A, V domains shown, Humanized, human IgG1 LALA / kappa) VH: VQLVESGGRLVQPGTPLTLSCTVSGFSLSSYVMGWFRQAPGKGLEYIGIISSSGSPYYASWVNGRFTISKTSTTMDLKMNSLRSEDTATYFCARVGPLGVDYFNIWGPGTLVTVSS VL: DIVMTQTPSSVEAAVGGTVTIKCQAGQSINSYLAWYQQKPGQRPKLLIYYASTLESGVPSRFKGSGSGTDYTLTISDLESADAATYYCQSWHYISRSYAFGGGTEVVVKR', 'no binding'),
  ('anti-SIRPα antibody 13 humanized (antibody, human IgG1, V domains shown, Humanized, human IgG1 LALA / kappa) VH: RQLVESGGGLVQPGGSLRLSCTASGFSLSSHGISWVRQAPGKGLEYIGTIGTGVITYFASWAKGRFTGSKTSSTAYMELSSLRSEDTAVYFCARGSAWNDPFDPWGQGTLVTVSS VL: AIQMTQSPSSLSASVGDRVTITCQASQSVYGNNDLAWYQQKPGKAPKLLIYLASTLATGVPSRFSGSGSGTDFTLTISSLQPEDFATYYCLGGGDDEADNVFGGGTKVEIKR', 'no binding');
